Measured values drawn from ChEMBL document CHEMBL1139984 for this set.

Target: Fatty acid-binding protein, adipocyte (Homo sapiens)
Sequence (P15090 whole entry): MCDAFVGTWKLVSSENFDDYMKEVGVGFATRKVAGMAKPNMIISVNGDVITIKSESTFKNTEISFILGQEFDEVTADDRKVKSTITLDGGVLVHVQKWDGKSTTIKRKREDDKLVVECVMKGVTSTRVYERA
Assay: Displacement of 1,8-ANS from aFABP by fluorescence based-assay
pKi: −log10 of the molar value.
Quick rule: pKi of at least 8 means 1, below that means -1.

compound=[3H]c1c(Cl)ccc(COc2cccc(C(=O)O)c2OCc2ccc(Cl)c([3H])c2Cl)c1Cl study_system="Fatty acid-binding protein, adipocyte (Homo sapiens)" class_label=1
compound=CC(C)Cn1c(-c2ccccc2-c2cccc(NCC(=O)O)c2)nc(-c2ccccc2)c1-c1ccccc1 study_system="Fatty acid-binding protein, adipocyte (Homo sapiens)" class_label=-1
compound="CCc1c(-c2ccccc2)c(-c2ccccc2)nn1-c1ccccc1-c1cccc(C(O)C(=O)O)c1 (stereo not drawn)" study_system="Fatty acid-binding protein, adipocyte (Homo sapiens)" class_label=-1
compound=CCn1c(-c2ccccc2-c2cccc(NCC(=O)O)c2)nc(-c2ccccc2)c1-c1ccccc1 study_system="Fatty acid-binding protein, adipocyte (Homo sapiens)" class_label=1
compound=O=C(O)CCCCOc1ccccc1-c1nc(-c2ccccc2)c(-c2ccccc2)o1 study_system="Fatty acid-binding protein, adipocyte (Homo sapiens)" class_label=-1
